Hey, just so you know, these numbers are from ChEMBL document CHEMBL3588837.

Tested on: Nucleophosmin (Homo sapiens), P06748 [T199N]
Assay: Inhibition of phosphorylated NPM1 recruitment to chromatic in 6 Gy irradiated human A549 cells assessed as band intensity ratio of protein solubility measured as extraction of pT199NPM1 pretreated 30 mins and measured after 90 mins of irradiation at 25 uM by Western blot analysis in presence of high NP-40 lysis buffer relative to DMSO control
Format: cell-based
Recorded Ratio for the following molecules
// return a plain number; no unit text

>>> measured("Cc1c(C=C2C(=O)NC(=S)NC2=O)c2ccccc2n1Cc1ccccc1Br")
1.68
>>> measured("Cc1c(C=C2C(=O)NC(=S)NC2=O)c2ccccc2n1Cc1ccc(C#N)cc1")
1.86
>>> measured("COc1cc(Cn2c(C)c(C=C3C(=O)NC(=O)NC3=O)c3ccccc32)cc(OC)c1OC")
1.16
>>> measured("Cc1c(C=C2C(=O)NC(=O)NC2=O)c2ccccc2n1Cc1ccccc1C(F)(F)F")
1.16
>>> measured("COc1ccc(Cn2c(C)c(C=C3C(=O)NC(=S)NC3=O)c3ccccc32)c(OC)c1")
1.22
>>> measured("Cc1c(C=C2C(=O)NC(=O)NC2=O)c2ccccc2n1Cc1ccccc1Br")
1.05

Item Cc1c(C=C2C(=O)NC(=S)NC2=O)c2ccccc2n1Cc1ccccc1 : provide Ratio 1.96

---

Test system: Nucleophosmin (Homo sapiens), P06748 [T199N]
Test: Inhibition of phosphorylated NPM1 recruitment to chromatic in 6 Gy irradiated human A549 cells assessed as band intensity ratio of protein solubility measured as extraction of pT199NPM1 pretreated 30 mins and measured after 90 mins of irradiation at 25 uM by Western blot analysis in presence of high NP-40 lysis buffer relative to DMSO control
Format: cell-based
Each record here notes measured Ratio.
Field format: numeric only.

The examples below pair each entry with its known result.
>>> measured("N#Cc1ccc(Cn2cc(C=C3C(=O)NC(=O)NC3=O)c3ccccc32)cc1")
1.51
>>> measured("COc1cc(Cn2c(C)c(C=C3C(=O)NC(=O)NC3=O)c3ccccc32)cc(OC)c1")
1.63
>>> measured("Cc1c(C=C2C(=O)NC(=S)NC2=O)c2ccccc2n1Cc1ccccc1C(F)(F)F")
1.54
>>> measured("COc1cc(Cn2c(C)c(C=C3C(=O)NC(=S)NC3=O)c3ccccc32)cc(OC)c1OC")
1.97
>>> measured("Cc1c(C=C2C(=O)NC(=O)NC2=O)c2ccccc2n1Cc1ccc(Br)cc1")
1.23
>>> measured("Cc1c(C=C2C(=O)NC(=O)NC2=O)c2ccccc2n1Cc1ccc(C#N)cc1")
1.58
>>> measured("COC(=O)c1ccc(Cn2c(C)c(C=C3C(=O)NC(=O)NC3=O)c3ccccc32)cc1")
1.48
>>> measured("Cc1c(C=C2C(=O)NC(=O)NC2=O)c2ccccc2n1Cc1ccccc1")
1.53

Read off the recorded Ratio for COc1cc(Cn2c(C)c(C=C3C(=O)NC(=S)NC3=O)c3ccccc32)cc(OC)c1 1.97

Fill in reported Ratio for this entry: COC(=O)c1ccc(Cn2c(C)c(C=C3C(=O)NC(=S)NC3=O)c3ccccc32)cc1 1.74

---

Molecular target: Nucleophosmin (Homo sapiens, UniProt P06748, T199N)
Sequence (P06748 whole entry T199N): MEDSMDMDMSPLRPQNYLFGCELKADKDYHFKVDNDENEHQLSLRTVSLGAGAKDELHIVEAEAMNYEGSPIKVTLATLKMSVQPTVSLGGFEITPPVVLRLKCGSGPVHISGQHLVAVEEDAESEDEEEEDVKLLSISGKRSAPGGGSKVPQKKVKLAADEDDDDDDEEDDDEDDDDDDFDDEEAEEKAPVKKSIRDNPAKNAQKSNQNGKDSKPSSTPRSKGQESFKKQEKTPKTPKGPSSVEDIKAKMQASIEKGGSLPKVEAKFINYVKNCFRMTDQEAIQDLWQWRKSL
Test: Inhibition of phosphorylated NPM1 recruitment to chromatic in 6 Gy irradiated human A549 cells assessed as extraction of pT199NPM1 pretreated 30 mins and measured after 90 mins of irradiation by Western blot analysis in presence of high NP-40 lysis buffer
Format: cell-based
REPORTED_ENDPOINT: pEC50
Scale: pEC50 equals -log10([C]), with [C] in mol/L.

Please give measured pEC50 of the following entry: Cc1c(C=C2C(=O)NC(=S)NC2=O)c2ccccc2n1Cc1ccc(Br)cc1 5.60
